Here, each record is paired with measured shrunken log2 fold change data.
Test system: Escherichia coli TOP10;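 further: peptides expressed intracellularly from a pBAD plasmid library in pooled LB shake-flask culture, induced with 0.3% L-arabinose, DNA abundance read by NGS, three biological replicates, DESeq2 with apeglm shrinkage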
Assay: shrunken log2 fold change of peptide-encoding DNA abundance (4.5 h post-induction vs induction); higher = less antimicrobial activity (less host growth inhibition)
Conditions: time post-induction: 4.5 h; library: site-saturation at positions 5, 18, 19, 20
Lab note: record the figure alone, no unit after it.

RRIRPRPPRLPRPRPRPPTCPRP | 0.051
RRIRSRPPRLPRPRPRPNMLPRP | -0.323
RRIRARPPRLPRPRPRPMIFPRP | 0.292

(Q) Sample RRIRRRPPRLPRPRPRPSSPPRP — what was its shrunken log2 fold change?
(A) 0.00935

(Q) Now the sequence RRIRCRPPRLPRPRPRPNTIPRP
(A) -0.553
